Molecular target: human PDE10A2 (Homo sapiens (Human), UniProt Q9Y233)
Sequence (Q9Y233 267-1055): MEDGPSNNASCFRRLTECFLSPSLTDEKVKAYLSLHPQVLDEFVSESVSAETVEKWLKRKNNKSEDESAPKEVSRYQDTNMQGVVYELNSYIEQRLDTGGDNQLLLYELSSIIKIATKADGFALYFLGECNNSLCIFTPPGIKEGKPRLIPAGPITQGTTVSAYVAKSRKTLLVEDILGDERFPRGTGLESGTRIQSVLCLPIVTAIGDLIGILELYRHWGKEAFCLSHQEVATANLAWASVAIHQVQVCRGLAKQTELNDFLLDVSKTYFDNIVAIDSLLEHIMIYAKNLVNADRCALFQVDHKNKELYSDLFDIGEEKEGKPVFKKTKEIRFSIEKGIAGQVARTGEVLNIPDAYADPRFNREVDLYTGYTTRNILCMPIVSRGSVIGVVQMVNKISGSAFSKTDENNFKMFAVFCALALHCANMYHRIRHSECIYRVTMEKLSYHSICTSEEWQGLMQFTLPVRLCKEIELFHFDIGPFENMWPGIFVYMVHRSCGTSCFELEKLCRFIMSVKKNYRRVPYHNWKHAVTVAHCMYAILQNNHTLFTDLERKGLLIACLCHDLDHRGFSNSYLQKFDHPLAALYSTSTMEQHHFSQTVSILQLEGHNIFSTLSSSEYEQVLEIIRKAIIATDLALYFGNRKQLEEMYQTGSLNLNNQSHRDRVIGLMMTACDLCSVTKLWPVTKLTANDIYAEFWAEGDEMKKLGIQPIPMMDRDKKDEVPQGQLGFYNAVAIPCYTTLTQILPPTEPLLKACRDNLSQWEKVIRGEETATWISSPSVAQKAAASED
I'd appreciate it if you could label each record using Ki and these ranges: bottom: < 0.1 nM; middle: ≥ 0.1 nM and < 1 nM; top: ≥ 1 nM

COc1ccc(-n2c(CCN3C(=O)c4cccc(-c5ncco5)c4C3=O)nc3ccccc3c2=O)cc1 top
CC(C)Oc1cccc2c1C(=O)N(CCc1nc3ncccc3c(=O)n1-c1ccc3cn[nH]c3c1)C2=O middle
COc1ccc(-n2c(CCN3C(=O)c4cccc(OC)c4C3=O)nc3cc(C)ccc3c2=O)cc1 top

Bin? COc1ccc(-n2c(CCN3C(=O)c4ccc(C)cc4C3=O)nc3ccccc3c2=O)cc1
top

Bin? COc1ccc2c(=O)n(-c3cccc(C)c3)c(CCN3C(=O)c4cccc(OC(C)C)c4C3=O)nc2c1
bottom

Bin? COc1cccc2c1C(=O)N(CCc1nc3ccccc3c(=O)n1-c1ccc3cnn(C)c3c1)C2=O
middle

Bin? COc1ccc2c(=O)n(-c3ccc4cc[nH]c4c3)c(CCN3C(=O)c4cccc(OC(C)C)c4C3=O)nc2c1
bottom

Bin? CC(C)Oc1cccc2c1C(=O)N(CCc1nc3ccccc3c(=O)n1-c1ccc(O)cc1)C2=O
middle

Bin? COc1ccc(-n2c(CN3C(=O)c4ccccc4C3=O)nc3ccccc3c2=O)cc1
top

Bin? Cc1ccc2c(=O)n(-c3ccc4cnn(C)c4c3)c(CCN3C(=O)c4cccc(OC(C)C)c4C3=O)nc2c1
bottom

Bin? COc1ccc(-n2c(CCN3C(=O)c4cccc(C#N)c4C3=O)nc3ccccc3c2=O)cc1
top
